target: PAR4 (Homo sapiens (Human)); assay: PAR4 FLIPR assay (antagonism of agonist-peptide-induced calcium mobilization); type: cell-based; conditions: H-Ala-Phe(4-F)-[…]NH2-induced intracellular calcium mobilization, PAR4-expressing HEK293 cells; read-out: PAR4 FLTPR assay (IC50)
Sequence (Q96RI0 18-385): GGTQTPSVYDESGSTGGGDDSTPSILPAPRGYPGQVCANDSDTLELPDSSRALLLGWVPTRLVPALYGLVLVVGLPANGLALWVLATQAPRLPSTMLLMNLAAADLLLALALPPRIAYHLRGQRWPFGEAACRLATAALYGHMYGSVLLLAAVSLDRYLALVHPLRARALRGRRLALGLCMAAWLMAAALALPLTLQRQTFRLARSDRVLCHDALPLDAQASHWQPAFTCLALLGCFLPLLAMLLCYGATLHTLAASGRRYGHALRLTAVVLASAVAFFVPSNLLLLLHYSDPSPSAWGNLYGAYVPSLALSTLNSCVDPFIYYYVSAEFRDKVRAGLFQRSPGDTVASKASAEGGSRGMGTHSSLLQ
What IC50 was measured for each of the following?
Answers are plain numbers, in nM.

Here's what some known entries look like.
>>> obs_value("COc1cnc2c(-c3nc4cc(F)c(O[C@@H]5CN(C(=O)OC(C)(C)C)CC[C@@H]5OC(=O)Nc5cnc(C)nc5)cc4s3)cc(C)cc2n1 (racemic)")
3.8
>>> obs_value("COc1ccc(NC(=O)O[C@H]2COC[C@H]2Oc2cc3sc(-c4cc(C)cc5nc(OC)cnc45)nc3cc2F)cn1 (racemic)")
6.2

# context switch: different molecule, same IC50
[in] What value of measured IC50 is listed for COc1cnc2c(-c3nc4cc(F)c(O[C@@H]5CCC[C@H]5O)cc4s3)cc(CO)cc2n1 (racemic) ?
[out] 22

* * *

Please provide measured IC50 for the entries that follow.
molecular target: PAR4 (Homo sapiens (Human)); test: PAR4 FLIPR assay (antagonism of agonist-peptide-induced calcium mobilization); type: cell-based; details: H-Ala-Phe(4-F)-Pro-Gly-Trp-Leu-Val-Lys-Asn-Gly-NH2-induced intracellular calcium mobilization, PAR4-expressing HEK293 cells; read-out: PAR4 FLTPR assay (IC50)
Answers are plain numbers, in nM.

Some solved entries appear below for comparison.
>>> obs_value("COc1cnc2c(-c3nc4cc(F)c(O[C@H]5CCC[C@H]5OC(=O)Nc5cnc(C)nc5)cc4s3)cc(C)cc2n1 [Example 37]")
4
>>> obs_value("COc1cnc2c(-c3nc4cc(F)c(O[C@@H]5CC(F)(F)C[C@@H]5OC(=O)Nc5cnc(C)nc5)cc4s3)cc(C)cc2n1 (stereo in doubt) [Example 99]")
32
>>> obs_value("COc1cnc2c(-c3nc4cc(F)c(O[C@@H]5CCC[C@@H]5OC(=O)Nc5cnc(C)nc5)cc4s3)cc(C)cc2n1 [Example 27]")
58

State the recorded IC50 for every item in the following list.
1. COc1cnc2c(-c3nc4cc(F)c(O[C@H]5CCC[C@H]5OC(N)=O)cc4s3)cc(C)cc2n1 [Example 39]
2. COc1cnc2c(-c3nc4cc(F)c(O[C@H]5CC[C@H]5OC(=O)Nc5cnc(OCCO)nc5)cc4s3)cc(C)cc2n1 [Example 64]
3. COC(=O)c1ccc(NC(=O)O[C@@H]2CCC[C@@H]2Oc2cc3sc(-c4cc(C)cc5nc(OC)cnc45)nc3cc2F)cn1 [Example 47]
4. COc1cnc2c(-c3nc4cc(F)c(O[C@@H]5CC[C@@H]5OC(=O)Nc5cnc(OCCO)nc5)cc4s3)cc(C)cc2c1 (stereo in doubt) [Example 74]
5. COc1cnc2c(-c3nc4cc(F)c(O[C@H]5CC(F)(F)CC[C@H]5OC(=O)Nc5ccc(C(=O)NCC(C)(C)O)nc5)cc4s3)cc(C)cc2n1 [Example 2]
6. COc1ccc(NC(=O)O[C@@H]2CCC[C@@H]2Oc2cc3sc(-c4cc(C)cc5nc(OC)cnc45)nc3cc2F)nc1 [Example 24]

[out]
1. 400
2. 1.9
3. 4.2
4. 8.9
5. 0.46
6. 7.8

For every item below, please supply its IC50.
1. COc1cnc2c(-c3nc4cc(F)c(O[C@H]5CC[C@H]5O)cc4s3)cc(C)cc2n1 [Example 60]
2. COc1cnc2c(-c3nc4cc(F)c(O[C@H]5CC(F)(F)CC[C@H]5OC(=O)Nc5cnc(OCCO)nc5)cc4s3)cc(C)cc2c1 [Example 15]

[out]
[9.8, 0.77]

Look at each molecule and report its IC50.
1. COc1cnc2c(-c3nc4cc(F)c(O[C@H]5CCC[C@H]5OC(=O)Nc5cncc(C#N)c5)cc4s3)cc(C)cc2n1 [Example 34]
2. COc1cnc2c(-c3nc4cc(F)c(O[C@H]5CCC[C@H]5OC(=O)Nc5cnc(C(N)=O)nc5)cc4s3)cc(C)cc2n1 [Example 52]

[out]
1. 1.6
2. 2.5

Report IC50 for each item below.
1. COC(=O)c1ncc(NC(=O)O[C@@H]2CCC[C@@H]2Oc2cc3sc(-c4cc(C)cc5nc(OC)cnc45)nc3cc2F)cn1 [Example 51]
2. COc1cnc2c(-c3nc4cc(F)c(O[C@H]5CCC[C@H]5OC(=O)Nc5ccc(C(=O)N(C)C)nc5)cc4s3)cc(C)cc2n1 [Example 50]
3. COc1cnc2c(-c3nc4cc(F)c(O[C@@H]5CC[C@@H]5OC(=O)Nc5cnc(OC[C@@H](C)O)nc5)cc4s3)cc(C)cc2n1 (stereo in doubt) [Example 62]
4. COc1ccc(NC(=O)O[C@H]2CCC[C@H]2Oc2cc3sc(-c4cc(C)cc5nc(OC)cnc45)nc3cc2F)cn1 [Example 23]
5. COc1cnc2c(-c3nc4cc(F)c(O[C@H]5CC(F)(F)CC[C@H]5OC(=O)Nc5cnc(CCO)nc5)cc4s3)cc(C)cc2n1 [Example 3]
6. COc1cnc2c(-c3nc4cc(F)c(O[C@@H]5CC[C@@H]5OC(=O)Nc5cnc(CCO)nc5)cc4s3)cc(C)cc2n1 [Example 70]
7. CNC(=O)c1ccc(NC(=O)O[C@@H]2CCC[C@@H]2Oc2cc3sc(-c4cc(C)cc5nc(OC)cnc45)nc3cc2F)cn1 [Example 48]
8. COc1cnc2c(-c3nc4cc(F)c(O[C@@H]5CC[C@@H]5OC(=O)Nc5cnc(OCCO)nc5)cc4s3)cc(F)cc2c1 [Example 81]

[out]
[6.8, 3.4, 6.9, 30, 0.82, 9, 2.4, 9.2]
